# experimental protocol: Oral bioavailability in rat at 3 mg/kg
# Format: ADME, organism-based
# assay setup: in vivo
measurement kind: bioavailability (%)
Answers are plain numbers, in %.

Look up bioavailability: `CC(C)(C)CC[C@H](c1ccc(C(=O)NCc2nn[nH]n2)cc1)N1C(=O)C(c2cc(Cl)cc(Cl)c2)=N[C@]12CC[C@@H](C(C)(C)C)CC2`
15

----------
# tested target: Glucagon receptor (Homo sapiens)
# experimental protocol: biochemical
# Format: cell-based, CHO
# Description: Displacement of [125I]-glucagon from recombinant human GCGR expressed in CHO cells after 60 mins by scintillation counting analysis
Assign pIC50 to each entry below.
Numbers only, as −log10 of the molar value.

Solved entries (count: 3):
Look up pIC50: `CCC[C@H](c1ccc(C(=O)NCc2nn[nH]n2)cc1)N1C(=O)C(c2cc(Cl)cc(Cl)c2)=N[C@]12CC[C@@H](C(C)(C)C)CC2`
7.26

Look up pIC50: `CC(C)(C)[C@H]1CC[C@]2(CC1)N=C(c1cc(Cl)cc(Cl)c1)C(=O)N2Cc1ccc(C(=O)NCCC(=O)O)cc1`
6.28

Look up pIC50: `C[C@H](c1ccc(C(=O)NCCC(=O)O)cc1)N1C(=O)C(c2cccc(Cl)c2)=N[C@]12CC[C@@H](C(C)(C)C)CC2`
6.89

Next molecule, please.
Look up pIC50: `CC(C)(C)CC[C@H](c1ccc(C(=O)NCc2nn[nH]n2)cc1)N1C(=O)C(c2cc(Cl)cc(Cl)c2)=NC12CCCCC2`
6.71

----------
# tested target: Gastric inhibitory polypeptide receptor (Homo sapiens)
# Sequence (P48546 whole entry): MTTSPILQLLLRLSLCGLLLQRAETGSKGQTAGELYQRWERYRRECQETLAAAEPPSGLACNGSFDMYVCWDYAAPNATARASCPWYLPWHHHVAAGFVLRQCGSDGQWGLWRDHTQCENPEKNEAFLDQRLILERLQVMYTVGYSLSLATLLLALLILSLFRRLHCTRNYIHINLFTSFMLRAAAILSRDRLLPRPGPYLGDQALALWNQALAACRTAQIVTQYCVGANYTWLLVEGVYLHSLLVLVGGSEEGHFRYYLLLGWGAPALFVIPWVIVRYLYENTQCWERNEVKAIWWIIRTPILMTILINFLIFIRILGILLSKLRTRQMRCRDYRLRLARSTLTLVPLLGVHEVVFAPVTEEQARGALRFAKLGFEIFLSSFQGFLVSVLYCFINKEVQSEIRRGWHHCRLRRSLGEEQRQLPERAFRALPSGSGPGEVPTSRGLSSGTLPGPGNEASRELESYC
# experimental protocol: Antagonist activity at human GIPR assessed as inhibition of cAMP production
# Type: functional
measurement kind: IC50 (nM)
Give bare numbers, in nM.

Look up IC50: `CC(C)(C)CC[C@H](c1ccc(C(=O)NCc2nn[nH]n2)cc1)N1C(=O)C(c2cc(Cl)cc(Cl)c2)=N[C@]12CC[C@@H](C(C)(C)C)CC2`
2100

----------
# experimental protocol: Plasma concentration in streptozotocin-induced ICR mouse type-2 diabetic model at 10 mg/kg, po measured at 8 hrs by HPLC/MS/MS analysis
# Type: ADME, organism-based
# Design: dose 10 mg/kg, route oral
measurement kind: concentration at 8 h (µM)
Give bare numbers, in µM.

Look up concentration at 8 h: `CC(C)(C)CC[C@H](c1ccc(C(=O)NCc2nn[nH]n2)cc1)N1C(=O)C(c2cc(Cl)cc(Cl)c2)=N[C@]12CC[C@@H](C(C)(C)C)CC2`
4.5

----------
# experimental protocol: Plasma concentration in streptozotocin-induced ICR mouse type-2 diabetic model at 3 mg/kg, po measured at 8 hrs by HPLC/MS/MS analysis
# Type: ADME, organism-based
# Parameters: dose 3 mg/kg, route oral
measurement kind: concentration at 8 h (nM)
Numbers only, in nM.

Look up concentration at 8 h: `CC(C)(C)CC[C@H](c1ccc(C(=O)NCc2nn[nH]n2)cc1)N1C(=O)C(c2cc(Cl)cc(Cl)c2)=N[C@]12CC[C@@H](C(C)(C)C)CC2`
1100

----------
# experimental protocol: Plasma concentration in diet-induced obese ICR mouse model at 10 mg/kg, po measured at 24 hrs by HPLC/MS/MS analysis
# Assay type: ADME, organism-based
# Parameters: dose 10 mg/kg, route oral
measurement kind: concentration at 24 h (nM)
Give bare numbers, in nM.

Look up concentration at 24 h: `CC(C)(C)CC[C@H](c1ccc(C(=O)NCc2nn[nH]n2)cc1)N1C(=O)C(c2cc(Cl)cc(Cl)c2)=N[C@]12CC[C@@H](C(C)(C)C)CC2`
810

----------
# tested target: Glucagon receptor (Homo sapiens, UniProt P47871)
# Sequence (P47871 whole entry): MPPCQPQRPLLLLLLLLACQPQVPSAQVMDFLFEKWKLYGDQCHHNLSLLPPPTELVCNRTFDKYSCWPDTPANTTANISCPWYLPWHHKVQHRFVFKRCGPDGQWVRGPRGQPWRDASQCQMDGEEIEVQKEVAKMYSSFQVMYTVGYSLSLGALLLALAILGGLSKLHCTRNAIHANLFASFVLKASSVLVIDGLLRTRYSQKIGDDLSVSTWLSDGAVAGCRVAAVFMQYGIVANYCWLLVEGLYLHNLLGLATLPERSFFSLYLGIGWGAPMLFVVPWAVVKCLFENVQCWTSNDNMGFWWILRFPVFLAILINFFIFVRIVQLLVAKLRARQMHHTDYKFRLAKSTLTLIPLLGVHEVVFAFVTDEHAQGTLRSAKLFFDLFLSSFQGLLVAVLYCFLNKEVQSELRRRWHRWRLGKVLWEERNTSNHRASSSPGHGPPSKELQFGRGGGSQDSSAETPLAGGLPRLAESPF
# experimental protocol: Antagonist activity at human GCGR expressed in CHO cells assessed as inhibition of glucagon-stimulated cAMP production preincubated for 30 mins followed by glucagon induction measured after 45 mins by LANCE assay
# Type: functional, cell-based
Assign pIC50 to each entry below.
Give bare numbers, as −log10 of the molar value.

Solved entries (count: 2):
Look up pIC50: `CC(C)(C)CC[C@H](c1ccc(C(=O)NCc2nn[nH]n2)cc1)N1C(=O)C(c2cccc(F)c2)=N[C@]12CC[C@@H](C(C)(C)C)CC2`
6.85

Look up pIC50: `C[C@H](c1ccc(C(=O)NCCC(=O)O)cc1)N1C(=O)C(c2ccc(F)c(Cl)c2)=N[C@]12CC[C@@H](C(C)(C)C)CC2`
6.36

New cases:
Look up pIC50: `CC(C)(C)CC[C@H](c1ccc(C(=O)NCc2nn[nH]n2)cc1)N1C(=O)C(c2cc(Cl)cc(Cl)c2)=N[C@]12CC[C@@H](C(C)(C)C)CC2`
7.34

----------
Assign IC50 to each entry below.
# tested target: Glucagon-like peptide 1 receptor (Homo sapiens, UniProt P43220)
# Sequence (P43220 whole entry): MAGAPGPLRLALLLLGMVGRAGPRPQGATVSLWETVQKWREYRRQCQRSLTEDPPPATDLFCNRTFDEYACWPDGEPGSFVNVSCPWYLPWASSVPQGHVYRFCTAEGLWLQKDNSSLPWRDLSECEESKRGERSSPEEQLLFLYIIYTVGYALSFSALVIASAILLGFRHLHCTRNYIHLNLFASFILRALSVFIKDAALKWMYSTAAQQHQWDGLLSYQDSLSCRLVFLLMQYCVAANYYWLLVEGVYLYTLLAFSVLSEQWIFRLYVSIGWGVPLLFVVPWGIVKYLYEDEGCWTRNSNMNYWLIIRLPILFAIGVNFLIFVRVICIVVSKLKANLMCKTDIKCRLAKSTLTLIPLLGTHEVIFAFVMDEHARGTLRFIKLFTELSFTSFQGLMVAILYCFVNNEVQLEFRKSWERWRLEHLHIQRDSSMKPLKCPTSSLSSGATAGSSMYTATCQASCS
# experimental protocol: Antagonist activity at human GLP-1R expressed in CHO cells assessed as inhibition of GLP-1-stimulated cAMP production preincubated for 30 mins followed by GLP-1 induction measured after 45 mins by LANCE assay

Solved entries (count: 5):
Report IC50 for `CC(C)(C)CC[C@H](c1ccc(C(=O)NCc2nn[nH]n2)cc1)N1C(=O)C(c2ccc(F)cc2)=N[C@]12CC[C@@H](C(C)(C)C)CC2` tested on Glucagon-like peptide 1 receptor (Homo sapiens, UniProt P43220).
> 10 µM

Report IC50 for `C[C@H](c1ccc(C(=O)NCCC(=O)O)cc1)N1C(=O)C(c2cccc(F)c2)=N[C@]12CC[C@@H](C(C)(C)C)CC2` tested on Glucagon-like peptide 1 receptor (Homo sapiens, UniProt P43220).
> 10 µM

Report IC50 for CC(Cc1ccc(C(=O)NCCC(=O)O)cc1)N1C(=O)C(c2cc(Cl)cc(Cl)c2)=N[C@]12CC[C@@H](C(C)(C)C)CC2 (stereo partly specified) tested on Glucagon-like peptide 1 receptor (Homo sapiens, UniProt P43220).
3.1 µM

Report IC50 for `C[C@H](c1ccc(C(=O)NCCC(=O)O)cc1)N1C(=O)C(c2ccccc2)=N[C@]12CC[C@@H](C(C)(C)C)CC2` tested on Glucagon-like peptide 1 receptor (Homo sapiens, UniProt P43220).
> 10 µM

Report IC50 for CC(C)(C)CC[C@H](c1ccc(C(=O)NC[C@@H](O)C(=O)O)cc1)N1C(=O)C(c2cc(Cl)cc(Cl)c2)=N[C@]12CC[C@@H](C(C)(C)C)CC2 (mixture of isomers) tested on Glucagon-like peptide 1 receptor (Homo sapiens, UniProt P43220).
> 10 µM

New cases:
Report IC50 for `C[C@H](c1ccc(C(=O)NCCC(=O)O)cc1)N1C(=O)C(c2cccc(C3CC3)c2)=N[C@]12CC[C@@H](C(C)(C)C)CC2` tested on Glucagon-like peptide 1 receptor (Homo sapiens, UniProt P43220).
> 10 µM

----------
# tested target: Glucagon receptor (Homo sapiens)
# experimental protocol: Antagonist activity at human GCGR expressed in CHO cells assessed as inhibition of glucagon-stimulated cAMP production preincubated for 30 mins followed by glucagon induction measured after 45 mins by LANCE assay
# Assay type: functional, cell-based
measurement kind: pIC50
Give bare numbers, as −log10 of the molar value.

Look up pIC50: `CC(C)(C)CC[C@H](c1ccc(C(=O)NCc2nn[nH]n2)cc1)N1C(=O)C(c2cc(F)cc(F)c2)=N[C@]12CC[C@@H](C(C)(C)C)CC2`
6.96

Look up pIC50: `CC(C)(C)CC[C@H](c1ccc(C(=O)NC[C@H](O)C(=O)O)cc1)N1C(=O)C(c2cc(Cl)cc(Cl)c2)=N[C@]12CC[C@@H](C(C)(C)C)CC2`
6.43

Look up pIC50: `CC(C)(C)CC[C@H](c1ccc(C(=O)NCc2nn[nH]n2)cc1)N1C(=O)C(c2ccc(F)cc2)=N[C@]12CC[C@@H](C(C)(C)C)CC2`
6.62

Look up pIC50: `CC(C)(C)[C@H]1CC[C@]2(CC1)N=C(c1ccc(OC(F)(F)F)cc1)C(=O)N2Cc1ccc(C(=O)NCCC(=O)O)cc1`
5.72

Look up pIC50: `CC(C)(C)CC[C@H](c1ccc(C(=O)Nc2nnn[nH]2)cc1)N1C(=O)C(c2cc(Cl)cc(Cl)c2)=N[C@]12CC[C@@H](C(C)(C)C)CC2`
6.07

Look up pIC50: `CC(C)(C)[C@H]1CC[C@]2(CC1)N=C(c1cc(Cl)cc(Cl)c1)C(=O)N2[C@@H](c1ccc(C(=O)NCc2nn[nH]n2)cc1)C1CC1`
6.27

Look up pIC50: CC(CN1C(=O)C(c2cc(Cl)cc(Cl)c2)=N[C@]12CC[C@@H](C(C)(C)C)CC2)c1ccc(C(=O)NCCC(=O)O)cc1 (stereo partly specified)
6.59

Look up pIC50: `C[C@H](c1ccc(C(=O)NCCC(=O)O)cc1)N1C(=O)C(c2ccccc2)=N[C@]12CC[C@@H](C(C)(C)C)CC2`
6.20

Look up pIC50: `CC(C)(C)[C@H]1CC[C@]2(CC1)N=C(c1cccc(Cl)c1)C(=O)N2Cc1ccc(C(=O)NCCC(=O)O)cc1`
6.11

Look up pIC50: `C[C@H](CC(=O)O)NC(=O)c1ccc([C@@H](CCC(C)(C)C)N2C(=O)C(c3cc(Cl)cc(Cl)c3)=N[C@]23CC[C@@H](C(C)(C)C)CC3)cc1`
6.28

Kindly give each listed record's pIC50.
1. CC(Cc1ccc(C(=O)NCCC(=O)O)cc1)N1C(=O)C(c2cc(Cl)cc(Cl)c2)=N[C@]12CC[C@@H](C(C)(C)C)CC2 (stereo partly specified)
2. C[C@H](c1ccc(C(=O)NCCC(=O)O)cc1)N1C(=O)C(c2ccc(OC(F)(F)F)cc2)=N[C@]12CC[C@@H](C(C)(C)C)CC2
3. CC(C)(C)CC[C@H](c1ccc(C(=O)NCCS(=O)(=O)O)cc1)N1C(=O)C(c2cc(Cl)cc(Cl)c2)=N[C@]12CC[C@@H](C(C)(C)C)CC2
4. C[C@H](c1ccc(C(=O)NCCC(=O)O)cc1)N1C(=O)C(c2ccccc2Cl)=N[C@]12CC[C@@H](C(C)(C)C)CC2

1. 6.85
2. 5.96
3. 5.07
4. 5.54

Kindly give each listed record's pIC50.
1. CC(C)(C)[C@H]1CC[C@]2(CC1)N=C(c1cccc(C(F)(F)F)c1)C(=O)N2Cc1ccc(C(=O)NCCC(=O)O)cc1
2. CC(C)(C)[C@H]1CC[C@]2(CC1)N=C(c1cc(Cl)cc(Cl)c1)C(=O)N2CCc1ccc(C(=O)NCCC(=O)O)cc1
3. CC(C)[C@H]1CC[C@]2(CC1)N=C(c1cc(Cl)cc(Cl)c1)C(=O)N2[C@H](CCC(C)(C)C)c1ccc(C(=O)NCc2nn[nH]n2)cc1
4. CC(C)(C)[C@H]1CC[C@]2(CC1)N=C(c1cc(Cl)cc(Cl)c1)C(=O)N2Cc1ccc(C(=O)NCCC(=O)O)cc1
5. CC(C)(C)CC[C@H](c1ccc(C(=O)NCc2nn[nH]n2)cc1)N1C(=O)C(c2cnccc2C(F)(F)F)=N[C@]12CC[C@@H](C(C)(C)C)CC2
6. COc1ccc(C2=N[C@]3(CC[C@@H](C(C)(C)C)CC3)N([C@H](CCC(C)(C)C)c3ccc(C(=O)NCc4nn[nH]n4)cc3)C2=O)cc1

1: 6.29; 2: 6.77; 3: 7.28; 4: 6.54; 5: 5.92; 6: 6.44

Kindly give each listed record's pIC50.
1. CC(C)(C)CC[C@H](c1ccc(C(=O)NCc2nn[nH]n2)cc1)N1C(=O)C(c2cccc(C(F)(F)F)c2)=N[C@]12CC[C@@H](C(C)(C)C)CC2
2. CC(C)(C)CC[C@H](c1ccc(C(=O)NCc2nn[nH]n2)cc1)N1C(=O)C(c2cc(Cl)cc(Cl)c2)=NC12CCCCC2

1. 6.74
2. 6.29

Kindly give each listed record's pIC50.
1. CC(C)(C)CC[C@H](c1ccc(C(=O)NCCC2=NNNN2)cc1)N1C(=O)C(c2cc(Cl)cc(Cl)c2)=N[C@]12CC[C@@H](C(C)(C)C)CC2
2. C[C@H](c1ccc(C(=O)NCCC(=O)O)cc1)N1C(=O)C(c2cccc(C(F)(F)F)c2)=N[C@]12CC[C@@H](C(C)(C)C)CC2
3. CC[C@H](c1ccc(C(=O)NCc2nn[nH]n2)cc1)N1C(=O)C(c2cc(Cl)cc(Cl)c2)=N[C@]12CC[C@@H](C(C)(C)C)CC2

6.05
6.55
6.57

Values from ChEMBL document CHEMBL3232855
